Test system: S. typhimurium TA100
Method description: Microdilution assay, MIC determination (CLSI M07-A9)
Type: cell-based
Condition summary: Salmonella enterica; S. typhimurium TA100; 37° C., 20 h, MHBII media; read-out: MIC
Property: MIC (mg/L)
Give just the numeric value; mg/L need not be written.

COc1c(NC(=O)c2ccc(NC(=O)c3ccc(NC(=O)C(Cc4cnn[nH]4)NC(=O)c4ccc(NC(=O)c5ccc(F)cc5)cn4)cc3O)c(OC)c2O)ccc(C(=O)O)c1O (centres unmarked); 310
COc1c(NC(=O)c2ccc(NC(=O)c3ccc(NC(=O)C(Cc4cnn[nH]4)NC(=O)c4ccc(NC(=O)/C(C)=C/c5ccc(O)cc5)cc4)nc3)c(OC)c2O)ccc(C(=O)O)c1O (centres unmarked); 4000
COc1c(NC(=O)c2ccc(NC(=O)c3ccc(NC(=O)C(Cc4cnn[nH]4)NC(=O)c4ccc(NC(=O)/C(C)=C/c5ccc(O)cc5)cn4)cc3O)c(OC)c2O)ccc(C(=O)O)c1O (centres unmarked); 16
COc1c(NC(=O)c2ccc(NC(=O)[C@H](Cc3c[nH]nn3)NC(=O)c3ccc(NC(=O)/C(C)=C/c4ccc(O)cc4)cc3)cc2)ccc(C(=O)Nc2ccc(C(=O)O)cn2)c1O; 16

Challenge: Complete the entry with MIC for COc1c(NC(=O)c2ccc(NC(=O)c3ccc(NC(=O)C(Cc4cnn[nH]4)NC(=O)c4ccc(NC(=O)/C(C)=C/c5ccc(O)cc5)nc4)cc3)c(OC)c2O)ccc(C(=O)O)c1O (centres unmarked)
Response given: 16

Challenge: Complete the entry with MIC for COc1nc(C(=O)Nc2ccc(C(=O)O)c(O)c2OC)ccc1NC(=O)c1ccc(NC(=O)C(Cc2cnn[nH]2)NC(=O)c2ccc(NC(=O)/C(C)=C/c3ccc(O)cc3)cc2)cc1 (centres unmarked)
Response given: 31

* * *

Test system: S. typhimurium TA100
Method description: Microdilution assay, MIC determination (CLSI M07-A9)
Assay type: cell-based
Condition summary: Salmonella enterica; S. typhimurium TA100; 37° C., 20 h, MHBII media; read-out: MIC
Property: MIC (µg/mL)
Give just the numeric value; µg/mL need not be written.

COc1c(NC(=O)c2ccc(NC(=O)c3ccc(NC(=O)C(Cc4cnn[nH]4)NC(=O)c4ccc(NC(=O)/C(C)=C/c5ccc(O)cc5)nn4)cc3)c(OC)c2O)ccc(C(=O)O)c1O (stereo not drawn); 31

Now consider a different compound.
Challenge: Complete the entry with MIC for COc1c(NC(=O)c2ccc(NC(=O)c3ccc(NC(=O)C(Cc4cnn[nH]4)NC(=O)c4ccc(NC(=O)/C(C)=C/c5ccc(F)cc5)cn4)cc3O)c(OC)c2O)ccc(C(=O)O)c1O (stereo not drawn)
Response given: 16

* * *

Tested on: B. subtilis DSM10
Method description: Microdilution assay, MIC determination (CLSI M07-A9)
Format: cell-based
Condition summary: Bacillus subtilis; B. subtilis DSM10; 37° C., 20 h, MHBII media; read-out: MIC
Some compounds, each annotated with its measured MIC.
Give just the numeric value; µg/mL need not be written.

COc1c(NC(=O)c2ccc(NC(=O)c3ccc(NC(=O)C(Cc4cnn[nH]4)NC(=O)c4ccc(NC(=O)/C(C)=C/c5ccc(O)cc5)nc4)cc3)c(OC)c2O)ccc(C(=O)O)c1O (stereo not shown) [Compound 2]; 500
COc1c(NC(=O)c2ccc(NC(=O)c3ccc(NC(=O)C(Cc4cnn[nH]4)NC(=O)c4ccc(NC(=O)/C(C)=C/c5ccc(O)cc5)nn4)cc3)c(OC)c2O)ccc(C(=O)O)c1O (stereo not shown) [Compound 3]; 1000

Challenge: Complete the entry with MIC for COc1c(NC(=O)c2ccc(NC(=O)c3ccc(NC(=O)C(Cc4cnn[nH]4)NC(=O)c4ccc(NC(=O)c5ccc(C#N)cc5)cc4)cn3)c(OC)c2O)ccc(C(=O)O)c1O (stereo not shown) [Compound 12]
Response given: 250

Challenge: Complete the entry with MIC for COc1nc(C(=O)Nc2ccc(C(=O)O)nc2OC)ccc1NC(=O)c1ccc(NC(=O)[C@H](Cc2c[nH]nn2)NC(=O)c2ccc(NC(=O)/C(C)=C/c3ccc(O)cc3)cc2)cc1 [Compound 19]
Response given: 4000

Challenge: Complete the entry with MIC for COc1c(NC(=O)c2ccc(NC(=O)c3ccc(NC(=O)C(Cc4cnn[nH]4)NC(=O)c4ccc(NC(=O)c5ccc(C#N)cc5)cn4)cn3)c(OC)c2O)ccc(C(=O)O)c1O (stereo not shown) [Compound 13]
Response given: 125

Challenge: Complete the entry with MIC for COc1c(NC(=O)c2ccc(NC(=O)C(Cc3cnn[nH]3)NC(=O)c3ccc(NC(=O)/C(C)=C/c4ccc(O)cc4)cn3)cc2)ccc(C(=O)Nc2ccc(C(=O)O)c(O)c2OCCO)c1O (stereo not shown) [Compound 8]
Response given: 2000

Challenge: Complete the entry with MIC for COc1c(NC(=O)c2ccc(NC(=O)c3ccc(NC(=O)C(Cc4cnn[nH]4)NC(=O)c4ccc(NC(=O)/C(C)=C/c5ccc(F)cc5)cn4)cc3O)c(OC)c2O)ccc(C(=O)O)c1O (stereo not shown) [Compound 5]
Response given: 250

Challenge: Complete the entry with MIC for COc1c(NC(=O)c2ccc(NC(=O)c3ccc(NC(=O)C(Cc4cnn[nH]4)NC(=O)c4ccc(NC(=O)/C(C)=C/c5ccc(O)cc5)cc4)nc3)c(OC)c2O)ccc(C(=O)O)c1O (stereo not shown) [Compound 11]
Response given: 500

Challenge: Complete the entry with MIC for CC(C)Oc1c(NC(=O)c2ccc(NC(=O)[C@H](Cc3c[nH]nn3)NC(=O)c3ccc(NC(=O)c4ccc(C#N)cc4)cc3)cn2)ccc(C(=O)Nc2ccc(C(=O)O)cc2)c1O [Compound 17]
Response given: 31
